Binding activity (absorbance at 492 nm): recorded values
assay-system: Influenza virus A/New Caledonia/20/1999 (H1N1) (Influenza A virus A/New Caledonia/20/1999 (H1N1))
test: ELISA on coated viral particles

Previously resolved entries follow.
{"columns": ["binder", "Binding activity (absorbance at 492 nm)"],
 "data": [
  ["Group 63 representative clone F083-336, Fab-cp3-type antibody (Fab, V domains shown) VH: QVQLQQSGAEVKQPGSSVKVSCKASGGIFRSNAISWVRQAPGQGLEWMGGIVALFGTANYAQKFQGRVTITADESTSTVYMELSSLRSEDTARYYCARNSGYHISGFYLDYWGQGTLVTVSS VL: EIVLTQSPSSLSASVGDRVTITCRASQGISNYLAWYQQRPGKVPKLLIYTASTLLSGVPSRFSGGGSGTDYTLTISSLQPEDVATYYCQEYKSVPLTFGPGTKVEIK", 1.61],
  ["Group 80 representative clone F083-373, Fab-cp3-type antibody (Fab, V domains shown) VH: QVQLVQSGADVKKPGSSVRVSCKASGRTFGNYAISWVRQAPGQGLEWMGGITPIFGAANYAQKFQGRVTISADLSTTMVYMDLSSLRSDDTAFYYCAGHPTYYYGSPMDYWGQGTLVTVSS VL: EIVLTQSPSSLSASVGDRVTITCRASQSIATYLNWYQQKPGKAPNLLIYAASNLQSGVPSRFSGSGSGTDFTLTISSLQPEDFATYVCLQSYSATLTFGGGTKVEIK", 1.39]
]}

Consider the binder Group 35 representative clone F082-117, Fab-cp3-type antibody (Fab, V domains shown) VH: QVQLVQSGSEVKKPGSSVKVSCKSSGGILRRSAISWVRQAPGQGLEWMGGILAIFGTTKYAQKFQGRITITADESTNTVHMELSSLRPDDTAVYYCAGGPHYYVSYFDSWGQGTLVTVSS VL: DIQMTQSPATLSLSPGERATLSCRASQSVRSYLAWYQQKPGQAPRLLIYDASNRATGIPARFSGSGSGTEFTLTISRLEPEDFAVYYCQQRSNWLFTFGPGTKVDFK and give its measured Binding activity (absorbance at 492 nm).
3.35

Consider the binder Group 36 representative clone F082-243, Fab-cp3-type antibody (Fab, V domains shown) VH: QVQLQQSGAEVKKPGSSVKVSCKASGGIFRKNAISWVRQAPGQGLEWMGGIIAIFGTANYAQKFQGRVTITADDSTNTVYMELTSLRYEDTAVYYCARGPNYYENYFDFWGQGTLVTVSS VL: EIVLTQSPSSLSASLRDTVTITCRTSQAITNYLAWYQQRPGKAPKLLIYAASVLQSGVPSRFSGSGSGTDFTLTISSLQPEDFATYYCQKYDSAPYTFGQGTKLEIK and give its measured Binding activity (absorbance at 492 nm).
0.96

meta.source: patent US20160200799A1
